Sourced from the supplement of paper PMC10567573

B1: RSAD1 (parent)
chain: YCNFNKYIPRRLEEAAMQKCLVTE

variants of: B1; test: protein stability index of a GFP-peptide fusion (GPS, HEK-293T) (PSI 1-6); higher = more stable; details: c terminus: a fixed tail appended;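 also: lentivirally expressed fusions sorted by FACS into six bins by GFP to DsRed ratio, PSI derived from sequencing read proportions per bin multiplied by bin number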
Binary call on protein stability index: 1 (yes) from 2 upward, 0 (no) beneath that.

variant-annotation	assigned-label
Q18H	0 (no)
I8A	0 (no)
A15D	1 (yes)
E24L	1 (yes)
P9K	0 (no)
K6R	0 (no)

Prompt: // inclusive: protein stability index at least 2? input: `R11H`
Response: 1 (yes)

Prompt: // inclusive: protein stability index at least 2? input: `M17W`
Response: 1 (yes)
